Where do the numbers come from? From patent US9034899B2.

Target: hSERT (Homo sapiens (Human))
Sequence (P31645 whole entry): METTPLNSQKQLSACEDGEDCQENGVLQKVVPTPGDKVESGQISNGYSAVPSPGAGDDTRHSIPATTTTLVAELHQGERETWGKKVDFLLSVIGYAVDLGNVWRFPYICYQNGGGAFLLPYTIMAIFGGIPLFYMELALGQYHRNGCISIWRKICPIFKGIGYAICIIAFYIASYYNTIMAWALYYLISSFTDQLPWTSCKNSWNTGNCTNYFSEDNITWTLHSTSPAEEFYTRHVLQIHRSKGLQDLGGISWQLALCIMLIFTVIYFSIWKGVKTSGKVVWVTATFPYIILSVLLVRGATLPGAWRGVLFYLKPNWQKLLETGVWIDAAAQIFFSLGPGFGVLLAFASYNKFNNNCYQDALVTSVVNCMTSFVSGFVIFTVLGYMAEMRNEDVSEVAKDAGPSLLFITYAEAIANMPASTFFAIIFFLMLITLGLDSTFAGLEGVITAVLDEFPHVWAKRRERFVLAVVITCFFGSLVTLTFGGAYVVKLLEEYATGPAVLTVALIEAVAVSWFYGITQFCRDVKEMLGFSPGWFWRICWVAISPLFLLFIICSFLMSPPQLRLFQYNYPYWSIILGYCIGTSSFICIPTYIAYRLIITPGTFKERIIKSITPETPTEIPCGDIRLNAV
Test: SERT radioligand binding assay ([125I]RTI-55, HEK-293 membranes)
Details: (+)-enantiomers; read-out: SERT IC50
Some molecules, each annotated with its measured IC50.
Respond numerically; units are nM and should not be typed.

Sample answers from the record:
Request: Dear colleague, please send me the reported IC50 for FC(F)(F)c1ccc(-c2ccc3c(c2)NCCC3c2ccc(Cl)cc2)nn1 (single isomer, unassigned; (+)) [Example 4] when you can.
Response: 21.4

Request: Dear colleague, please send me the reported IC50 for CC1(C)NCC(c2ccc(Cl)c(Cl)c2)c2ccc(-c3cccnn3)cc21 (single isomer, unassigned) [Example 9] when you can.
Response: 4.8

Request: Dear colleague, please send me the reported IC50 for Nc1ccc(-c2ccc3c(c2)CNCC3c2ccc(F)cc2)nn1 (centres unmarked) [Example 2] when you can.
Response: 144

Continuing:
Request: Dear colleague, please send me the reported IC50 for FC(F)Oc1ccc(-c2ccc3c(c2)CNCC3c2ccc(Cl)c(Cl)c2)nn1 (centres unmarked) [Example 12] when you can.
Response: 3.6

Request: Dear colleague, please send me the reported IC50 for Fc1cc2c(cc1-c1ccc3ncnn3c1)CNCC2c1ccc(Cl)c(Cl)c1 (single isomer, unassigned; (+)) [Example 39] when you can.
Response: 14.1
